Give measured inhibition zone (IZ) for each item. Keep answers brief.
Test system: Escherichia coli
Assay: Antibacterial activity against Escherichia coli MTCC 1089 after 24 hr by disk diffusion method
Format: functional
Answers are plain numbers, in mm.

Recorded results for 8 compounds are shown here.
smilesText: CCN(CC)c1cccc(OCc2cc(=O)oc3ccc(Br)cc23)c1
readoutUnits: mm
inhibition zone (IZ): 15
//
smilesText: O=c1cc(COc2cccc(O)c2)c2ccc3ccccc3c2o1
readoutUnits: mm
inhibition zone (IZ): 13
//
smilesText: COc1ccc2oc(=O)cc(COc3cccc(O)c3)c2c1
readoutUnits: mm
inhibition zone (IZ): 18
//
smilesText: CCN(CC)c1cccc(OCc2cc(=O)oc3ccc(OC)cc23)c1
readoutUnits: mm
inhibition zone (IZ): 17
//
smilesText: CC(=O)Nc1cccc(OCc2cc(=O)oc3ccc(Cl)cc23)c1
readoutUnits: mm
inhibition zone (IZ): 16
//
smilesText: O=c1cc(COc2cccc(O)c2)c2c(ccc3ccccc32)o1
readoutUnits: mm
inhibition zone (IZ): 12
//
smilesText: O=c1cc(COc2cccc(OCc3cc(=O)oc4ccc5ccccc5c34)c2)c2c(ccc3ccccc32)o1
readoutUnits: mm
inhibition zone (IZ): 11
//
smilesText: O=c1cc(COc2cccc(O)c2)c2cc(Br)ccc2o1
readoutUnits: mm
inhibition zone (IZ): 15

# batch size: 3; output inhibition zone (IZ) per entry
1. O=C(O)c1cn(C2CC2)c2cc(N3CCNCC3)c(F)cc2c1=O
2. CCN(CC)c1cccc(OCc2cc(=O)oc3ccc(C)cc23)c1
3. CCN(CC)c1cccc(OCc2cc(=O)oc3c2ccc2ccccc23)c1

# output
[18, 10, 13]

---

Tested on: Penicillium chrysogenum
Assay: Antifungal activity against Penicillium chrysogenum after 3 to 4 days by serial dilution method
Type: functional
The threshold is inclusive: inhibition zone (IZ) of exactly 20 mm counts as condition met; values below receive condition not met.

compound: O=c1cc(COc2cccc(O)c2)c2cc(Br)ccc2o1
label: condition not met

# input hey, is inhibition zone (IZ) for this one >= 20 mm? O=c1cc(COc2cccc(OCc3cc(=O)oc4c3ccc3ccccc34)c2)c2ccc3ccccc3c2o1
# output condition not met

# input hey, is inhibition zone (IZ) for this one >= 20 mm? O=c1cc(COc2cccc(OCc3cc(=O)oc4ccc5ccccc5c34)c2)c2c(ccc3ccccc32)o1
# output condition not met

# input hey, is inhibition zone (IZ) for this one >= 20 mm? OC(Cn1cncn1)(Cn1cncn1)c1ccc(F)cc1F [FLUCONAZOLE]
# output condition met

# input hey, is inhibition zone (IZ) for this one >= 20 mm? CCN(CC)c1cccc(OCc2cc(=O)oc3ccc(Br)cc23)c1
# output condition met

---

Test system: Escherichia coli
Assay: Antibacterial activity against Escherichia coli MTCC 1089 after 24 hr by disk diffusion method
Format: functional
Conditions: Escherichia coli, MTCC 1089, 24 h
metricName: MIC (µg/mL)
Answers are plain numbers, in µg/mL.

Recorded results for 4 molecules are shown here.
molecule: Cc1ccc2c(COc3cccc(O)c3)cc(=O)oc2c1
MIC / µg/mL: 50
//
molecule: CCN(CC)c1cccc(OCc2cc(=O)oc3ccc(Cl)cc23)c1
MIC / µg/mL: 12.5
//
molecule: CC(=O)Nc1cccc(OCc2cc(=O)oc3ccc(C)cc23)c1
MIC / µg/mL: 25
//
molecule: O=c1cc(COc2cccc(OCc3cc(=O)oc4ccc(Cl)cc34)c2)c2cc(Cl)ccc2o1
MIC / µg/mL: 12.5

# batch size: 3; output MIC per entry
1. O=C(O)c1cn(C2CC2)c2cc(N3CCNCC3)c(F)cc2c1=O [CIPROFLOXACIN]
2. CC(=O)Nc1cccc(OCc2cc(=O)oc3cc(C)ccc23)c1
3. CCN(CC)c1cccc(OCc2cc(=O)oc3ccc4ccccc4c23)c1

# output
[12.5, 25, 12.5]

---

System: Pseudomonas aeruginosa
Assay: Antibacterial activity against Pseudomonas aeruginosa MTCC 1034 after 24 hr by disk diffusion method
Assay type: functional
Conditions: Pseudomonas aeruginosa, MTCC 1034, 24 h
Give measured MIC for each item. Keep answers brief.
One number for each entry, in µg/mL.

Recorded results for 3 compounds are shown here.
smilesText: O=c1cc(COc2cccc(O)c2)c2cc(Cl)ccc2o1
assayedTarget: Pseudomonas aeruginosa
MIC / µg/mL: 6.25
--
smilesText: CCN(CC)c1cccc(OCc2cc(=O)oc3c2ccc2ccccc23)c1
assayedTarget: Pseudomonas aeruginosa
MIC / µg/mL: 6.25
--
smilesText: CC(=O)Nc1cccc(OCc2cc(=O)oc3c2ccc2ccccc23)c1
assayedTarget: Pseudomonas aeruginosa
MIC / µg/mL: 6.25

# batch size: 5; output MIC per entry
1. CC(=O)Nc1cccc(OCc2cc(=O)oc3ccc4ccccc4c23)c1
2. CCN(CC)c1cccc(OCc2cc(=O)oc3ccc4ccccc4c23)c1
3. O=c1cc(COc2cccc(OCc3cc(=O)oc4ccc5ccccc5c34)c2)c2c(ccc3ccccc32)o1
4. COc1ccc2oc(=O)cc(COc3cccc(NC(C)=O)c3)c2c1
5. O=c1cc(COc2cccc(OCc3cc(=O)oc4ccc(Br)cc34)c2)c2cc(Br)ccc2o1

# output
1. 12.5
2. 12.5
3. 12.5
4. 6.25
5. 6.25

# batch size: 2; output MIC per entry
1. CCN(CC)c1cccc(OCc2cc(=O)oc3ccc(Br)cc23)c1
2. CCN(CC)c1cccc(OCc2cc(=O)oc3ccc(OC)cc23)c1

# output
[6.25, 6.25]

---

System: Staphylococcus aureus
Assay: Induction of Staphylococcus aureus MTCC 3160 DNA cleavage at 50 ug after 2 hr by agarose gel electrophoresis
The source made the active and inactive calls. The calls are words filed in the database; no cut-off is given here.
Assign a class; possible classes are YES = active, NO = inactive

The examples below pair each entry with its known result.
smilesText: O=c1cc(COc2cccc(OCc3cc(=O)oc4ccc5ccccc5c34)c2)c2c(ccc3ccccc32)o1
assayedTarget: Staphylococcus aureus
label: NO
//
smilesText: O=c1cc(COc2cccc(OCc3cc(=O)oc4c3ccc3ccccc34)c2)c2ccc3ccccc3c2o1
assayedTarget: Staphylococcus aureus
label: NO
//
smilesText: O=c1cc(COc2cccc(O)c2)c2ccc3ccccc3c2o1
assayedTarget: Staphylococcus aureus
label: NO
//
smilesText: O=c1cc(COc2cccc(OCc3cc(=O)oc4ccc(Cl)cc34)c2)c2cc(Cl)ccc2o1
assayedTarget: Staphylococcus aureus
label: YES

# input What was the test verdict on CC(=O)Nc1cccc(OCc2cc(=O)oc3c2ccc2ccccc23)c1 ?
# output NO

# input What was the test verdict on O=c1cc(COc2cccc(OCc3cc(=O)oc4ccc(Br)cc34)c2)c2cc(Br)ccc2o1 ?
# output YES

# input What was the test verdict on Cc1ccc2oc(=O)cc(COc3cccc(O)c3)c2c1 ?
# output NO

# input What was the test verdict on CCN(CC)c1cccc(OCc2cc(=O)oc3ccc(Br)cc23)c1 ?
# output YES

# input What was the test verdict on CCN(CC)c1cccc(OCc2cc(=O)oc3c2ccc2ccccc23)c1 ?
# output NO

# input What was the test verdict on O=c1cc(COc2cccc(O)c2)c2cc(Br)ccc2o1 ?
# output YES

---

System: Fusarium oxysporum
Experiment: Antifungal activity against Fusarium oxysporum after 3 to 4 days by serial dilution method
Type: functional
Give measured inhibition zone (IZ) for each item. Keep answers brief.
Answers are plain numbers, in mm.

Recorded results for 3 compounds are shown here.
smilesText: OC(Cn1cncn1)(Cn1cncn1)c1ccc(F)cc1F
readoutUnits: mm
numericReadout: 17
//
smilesText: CC(=O)Nc1cccc(OCc2cc(=O)oc3ccc4ccccc4c23)c1
readoutUnits: mm
numericReadout: 12
//
smilesText: O=c1cc(COc2cccc(OCc3cc(=O)oc4ccc(Br)cc34)c2)c2cc(Br)ccc2o1
readoutUnits: mm
numericReadout: 13

# input Give the measured inhibition zone (IZ) of CC(=O)Nc1cccc(OCc2cc(=O)oc3c2ccc2ccccc23)c1 .
# output 11

---

Tested on: Candida albicans
Assay: Antifungal activity against Candida albicans after 3 to 4 days by serial dilution method
Assay type: functional
Give measured inhibition zone (IZ) for each item. Keep answers brief.
One number for each entry, in mm.

smilesText: CCN(CC)c1cccc(OCc2cc(=O)oc3cc(C)ccc23)c1
inhibition zone (IZ) / mm: 8
//
smilesText: CCN(CC)c1cccc(OCc2cc(=O)oc3ccc(Br)cc23)c1
inhibition zone (IZ) / mm: 16

# batch size: 2; output inhibition zone (IZ) per entry
1. Cc1ccc2c(COc3cccc(OCc4cc(=O)oc5cc(C)ccc45)c3)cc(=O)oc2c1
2. COc1ccc2oc(=O)cc(COc3cccc(NC(C)=O)c3)c2c1

# output
1: 8; 2: 19

# batch size: 2; output inhibition zone (IZ) per entry
1. CCN(CC)c1cccc(OCc2cc(=O)oc3ccc(OC)cc23)c1
2. CC(=O)Nc1cccc(OCc2cc(=O)oc3ccc4ccccc4c23)c1

# output
17
15

---

Tested on: Escherichia coli
Assay: Induction of Escherichia coli MTCC 1089 DNA cleavage at 50 ug after 2 hr by agarose gel electrophoresis
Active and inactive are the calls of the source. No cut-off for these calls is given here.
Assign a class; possible classes are active, inactive

The examples below pair each entry with its known result.
smilesText: Cc1ccc2c(COc3cccc(OCc4cc(=O)oc5cc(C)ccc45)c3)cc(=O)oc2c1
label: inactive
//
smilesText: CCN(CC)c1cccc(OCc2cc(=O)oc3cc(C)ccc23)c1
label: inactive

Could you now look at the following compound, please?
# input What was the test verdict on Cc1ccc2oc(=O)cc(COc3cccc(O)c3)c2c1 ?
# output inactive
